The measured values listed here are drawn from the supplement of paper PMC10567573.

B1: KIAA0774 (parent)
chain: FEDEVKRLGWQQQAELQELEERLQ

Variants of: B1
Experiment: protein stability index of a GFP-peptide fusion (GPS, HEK-293T) (PSI 1-6); higher = more stable;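 note: lentivirally expressed fusions sorted by FACS into six bins by GFP to DsRed ratio, PSI derived from sequencing read proportions per bin multiplied by bin number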
Settings: c terminus: a fixed tail appended
Can you tell me protein stability index for the items I'm about to list?
One number for each entry.

- sequenceChange: "Q11E"
  quantityMeasured: "protein stability index"
  measuredResult: 4.83
- sequenceChange: "R7F"
  quantityMeasured: "protein stability index"
  measuredResult: 4.32
- sequenceChange: "Q11A"
  quantityMeasured: "protein stability index"
  measuredResult: 3.64
- sequenceChange: "Q17T"
  quantityMeasured: "protein stability index"
  measuredResult: 4.78
- sequenceChange: "R7V"
  quantityMeasured: "protein stability index"
  measuredResult: 3.9

Would you be so kind as to report protein stability index for each listed record?
1. Q13R
2. R7Y
3. D3R
4. E18N
5. A14Q
6. D3P

1: 2.99; 2: 4.21; 3: 2.35; 4: 3.94; 5: 4.61; 6: 3.42
